tested_system: T1, cynomolgus Hepcidin-25 (cynomolgus, UniProt A7XEI3 60-84, not fully specified)
T1 construct: mature
T1 peptide: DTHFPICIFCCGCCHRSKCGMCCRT
assay_text: direct ELISA on cynomolgus hep-25, mutein titrated
Criterion: Kd strictly under 1 nM. Met: true (1). Not met: false (0).

[Q] Input lipocalin mutein of SEQ ID NO: 9 (designed binder, also called Lcn2 mutein) QDSTSDLIPAPPLSKVPLQQNFQDNQFHGKWYVVGLAGNEVLREDKDPMKMWATIYELKEDKSYNVTIVMSLAKKCEYLFQTFVPGSQPGEFTLGDIKSSPGRTSGLVRVVSTNYNQHAMVFFKVVWQNREVFWITLYGRTKELTSGLKENFIRFSKSLGLPENHIVFPVPIDQCIDG ; condition: Kd strictly below 1 nM. Does it hold?
[A] false (0)

[Q] Input lipocalin mutein of SEQ ID NO: 14, linked to PEG40 (designed binder, branched 40k PEG-maleimide on the free Cys at position 87, hNGAL mutein with Ser 87 back-mutated to Cys and PEGylated there) QDSTSDLIPAPPLSKVPLQQNFQDNQFHGKWYVVGLAGNEVLREDKDPMKMWATIYELEEDKSYNVTIVMFLAKKCEYLFQTFVPGCQPGEFTLGDIKSSPGRTSGLVRVVSTNYNQHAMVFFKTVWQNREVFWITLYGRTKELTSELKENFIRFSKSLGLPENHIVFPVPIDQCIDG ; condition: Kd strictly below 1 nM. Does it hold?
[A] false (0)

Switching to the query record.
[Q] Input lipocalin mutein of SEQ ID NO: 4 (designed binder, also called Lcn2 mutein) QDSTSDLIPAPPLSKVPLQQNFQDNQFHGKWYVVGVAGNEMLREDKDPLKMLATIYELKEDKSYNVTRVMFEYKKCVYLIETFVPGSQPGEFTLGTIKSVPGLTSGLVRVVSTNYNQHAMVFFKRVWQNREVFWITLYGRTKELTSELKENFIRFSKSLGLPENHIVFPVPIDQCIDG ; condition: Kd strictly below 1 nM. Does it hold?
[A] false (0)
